Target: Beta-3 Adrenergic Receptor (Homo sapiens (Human))
Test: Homogeneous Time-Resolved Fluorescence (HTRF) cAMP antagonist assay, IC50 determination
Conditions: CHO-K1 cells stably expressing recombinant receptor, isoproterenol at EC90
Experimental: HTRF cAMP assays were performed according to manufacturer's instructions (Cisbio, cAMP Dynamic 2 Assay Kit; #62AM4PEJ). CHO-K1 cells stably expressing recombinant receptor were harvested and suspended in warm PBS to make a 300,000 cells/mL stock. […] Compounds were dissolved and serially diluted (5-fold) in DMSO to generate a 10-point dose response stock. […] The EC90 for isoproterenol, a beta-adrenergic agonist, was determined in separate experiments using standard methods to measure agonist potencies. […]
pIC50: −log10 of the molar value.
MEASURE NAME: pIC50

Consider the following illustrative entries.
COMPOUND	pIC50
CNS(=O)(=O)c1cccc(OC[C@@H](O)CNC2COC3(CCN(S(=O)(=O)c4c(Cl)nc5sccn45)CC3)C2)c1 (stereo partly drawn)	7.60
COc1ccc(S(=O)(=O)N2CCC3(CC2)CC(NC[C@H](O)COc2cccc(S(=O)(=O)N(C)C)c2)CO3)cc1C (stereo partly drawn)	7.57
CNS(=O)(=O)c1cccc(OC[C@@H](O)CNC2COC3(CCN(S(=O)(=O)c4cccc(-c5nn[nH]n5)c4)CC3)C2)c1 (stereo partly drawn)	6.74

[a] CNS(=O)(=O)c1cccc(OC[C@@H](O)CN[C@H]2COC3(CCN(S(=O)(=O)c4cnc5c(c4)CC(=O)N5)CC3)C2)c1
[b] CNS(=O)(=O)c1cccc(OC[C@@H](O)CNC2COC3(CCN(S(=O)(=O)c4ccc(NC(C)=O)cc4)CC3)C2)c1 (stereo partly drawn)
[c] CNS(=O)(=O)c1cccc(OC[C@@H](O)CN[C@@H]2COC3(CCN(S(=O)(=O)c4cccc(-c5ccc(S(N)(=O)=O)cc5)c4)CC3)C2)c1
// query hey, can you rank those compounds up there by pIC50? biggest number first please Give the order by naming the labels one after another as requested.
// result c, b, a

###

biological target: Beta-3 Adrenergic Receptor (Homo sapiens (Human), UniProt P13945); test: Homogeneous Time-Resolved Fluorescence (HTRF) cAMP antagonist assay, IC50 determination; details: CHO-K1 cells stably expressing recombinant receptor, isoproterenol at EC90
Sequence (P13945 whole entry, species assumed): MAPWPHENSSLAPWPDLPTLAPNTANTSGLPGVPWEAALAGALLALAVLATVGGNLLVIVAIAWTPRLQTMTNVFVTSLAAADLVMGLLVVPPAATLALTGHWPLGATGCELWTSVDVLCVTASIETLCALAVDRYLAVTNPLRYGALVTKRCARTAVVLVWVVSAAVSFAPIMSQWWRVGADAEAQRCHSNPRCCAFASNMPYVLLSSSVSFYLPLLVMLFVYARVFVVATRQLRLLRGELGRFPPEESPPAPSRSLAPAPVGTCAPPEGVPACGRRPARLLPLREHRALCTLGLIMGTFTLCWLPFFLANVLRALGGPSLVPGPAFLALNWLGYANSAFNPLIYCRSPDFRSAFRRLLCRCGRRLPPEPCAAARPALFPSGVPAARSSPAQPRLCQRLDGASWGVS
pIC50: −log10 of the molar value.
MEASURE NAME: pIC50

MOLECULE	TARGET OF ASSAY	pIC50
CNS(=O)(=O)c1cccc(OC[C@@H](O)CNC2COC3(CCN(S(=O)(=O)c4cccc(-c5cccc(CO)c5)c4)CC3)C2)c1 (stereo partly drawn)	Beta-3 Adrenergic Receptor (Homo sapiens (Human), UniProt P13945)	7.62

[a] CNS(=O)(=O)c1cccc(OC[C@@H](O)CN[C@H]2COC3(CCN(S(=O)(=O)c4cccc(-c5ccc(N)nc5)c4)CC3)C2)c1
[b] CNS(=O)(=O)c1cccc(OC[C@@H](O)CNC2COC3(CCN(S(=O)(=O)c4cccc(Oc5ccc(C(F)(F)F)cc5)c4)CC3)C2)c1 (stereo partly drawn)
// query Kindly identify the item with the lower pIC50 figure among these two: a and b // output: label of the selected item
// result b
(b: 7.08, a: 7.66)

###

biological target: Beta-3 Adrenergic Receptor (Homo sapiens (Human), UniProt P13945); test: Homogeneous Time-Resolved Fluorescence (HTRF) cAMP antagonist assay, IC50 determination; conditions: CHO-K1 cells stably expressing recombinant receptor, isoproterenol at EC90
MEASURE NAME: IC50 (nM)

COMPOUND	TARGET OF ASSAY	IC50 / nM
CNS(=O)(=O)c1cccc(OC[C@@H](O)CNC2COC3(CCN(S(=O)(=O)c4ccccc4Br)CC3)C2)c1 (some centres unmarked) [Compound 54]	Beta-3 Adrenergic Receptor (Homo sapiens (Human), UniProt P13945)	17.4

[a] CNS(=O)(=O)c1cccc(OC[C@@H](O)CNC2COC3(CCN(S(=O)(=O)c4cc(-c5ccc(CN)cc5)cc(C(F)(F)F)c4)CC3)C2)c1 (some centres unmarked) [Compound 367]
[b] CNS(=O)(=O)c1cccc(OC[C@@H](O)CNC2COC3(CCN(S(=O)(=O)c4ccc5c(c4)CCCO5)CC3)C2)c1 (some centres unmarked) [Compound 41]
[c] CNS(=O)(=O)c1cccc(OC[C@@H](O)CNC2COC3(CCN(S(=O)(=O)c4ccccc4-c4ccccc4)CC3)C2)c1 (some centres unmarked) [Compound 174]
[d] CNS(=O)(=O)c1cccc(OC[C@@H](O)CN[C@@H]2COC3(CCN(S(=O)(=O)c4cnc5ccccc5c4)CC3)C2)c1 [Compound 335]
[e] CNS(=O)(=O)c1cccc(OC[C@@H](O)CNC2COC3(CCN(S(=O)(=O)Cc4ccccc4)CC3)C2)c1 (some centres unmarked) [Compound 172]
// query Hey, quick one: sort these by IC50, largest value first please. Your reply should list the labels following the order given in the request.
// result c, e, a, d, b

[1] CNS(=O)(=O)c1cccc(OC[C@@H](O)CNC2COC3(CCN(S(=O)(=O)c4cc(F)ccc4OC)CC3)C2)c1 (some centres unmarked) [Compound 238]
[2] CNS(=O)(=O)c1cccc(OC[C@@H](O)CNC2COC3(CCN(S(=O)(=O)c4ccc5ccccc5c4)CC3)C2)c1 (some centres unmarked) [Compound 1]
// query Thinking about recorded IC50 values, which is higher, 1 or 2 ? Answer format: the label of the selected item.
// result 1
(1: 38.4 nM, 2: 5.4 nM)

[1] CNS(=O)(=O)c1cccc(OC[C@@H](O)CNC2COC3(CCN(S(=O)(=O)c4ccc(N5CCOCC5)nc4)CC3)C2)c1 (some centres unmarked) [Compound 406]
[2] CNS(=O)(=O)c1cccc(OC[C@@H](O)CNC2COC3(CCN(S(=O)(=O)c4cccc(-c5cn(C)nc5C(F)(F)F)c4)CC3)C2)c1 (some centres unmarked) [Compound 62]
[3] CNS(=O)(=O)c1cccc(OC[C@@H](O)CN[C@H]2COC3(CCN(S(=O)(=O)c4cnc5c(c4)CCO5)CC3)C2)c1 [Compound 504]
[4] CNS(=O)(=O)c1cccc(OC[C@@H](O)CNC2COC3(CCN(S(=O)(=O)c4ccc(CN)cc4)CC3)C2)c1 (some centres unmarked) [Compound 391]
// query Given 4 compounds, produce a descending ranking by IC50. Show the ranking through the labels, in the order asked for.
// result 4, 3, 2, 1
(4: 446 nM, 3: 217 nM, 2: 44.9 nM, 1: 31.1 nM)

[A] CNS(=O)(=O)c1cccc(OC[C@@H](O)CN[C@H]2COC3(CCN(S(=O)(=O)c4cnc5nc(N)ccc5c4)CC3)C2)c1 [Compound 489]
[B] CCOc1ccc(S(=O)(=O)N2CCC3(CC2)CC(NC[C@H](O)COc2cccc(S(=O)(=O)NC)c2)CO3)cc1 (some centres unmarked) [Compound 136]
// query Among A and B , whose measured IC50 is the smaller figure? Answer format: the label of the selected item.
// result B

[a] CNS(=O)(=O)c1cccc(OC[C@@H](O)CNC2COC3(CCN(S(=O)(=O)c4cccc(-c5ccc(CNCCNC(C)=O)cc5)c4)CC3)C2)c1 (some centres unmarked) [Compound 348]
[b] CNS(=O)(=O)c1cccc(OC[C@@H](O)CNC2COC3(CCN(S(=O)(=O)c4ccc(OC(C)C)cc4)CC3)C2)c1 (some centres unmarked) [Compound 137]
[c] CNS(=O)(=O)c1cccc(OC[C@@H](O)CNC2COC3(CCN(S(=O)(=O)c4cn(C)c(C)n4)CC3)C2)c1 (some centres unmarked) [Compound 119]
// query Order field: IC50 | Direction: descending (largest first) Give the order by naming the labels one after another as requested.
// result c, a, b
(c: 203 nM, a: 36.7 nM, b: 23.8 nM)

[P] CNS(=O)(=O)c1cccc(OC[C@@H](O)CNC2COC3(CCN(S(=O)(=O)c4c(C)ccc5nonc45)CC3)C2)c1 (some centres unmarked) [Compound 175]
[Q] CNS(=O)(=O)c1cccc(OC[C@@H](O)CN[C@H]2COC3(CCN(c4ccncn4)CC3)C2)c1 [Compound 589]
// query Hi, I'm comparing P with Q and wondering which one has the bigger number for IC50. Any idea? # reply format: chosen label
// result Q
(Q: 1450 nM, P: 23.8 nM)

[a] CC(C)NS(=O)(=O)c1cccc(OC[C@@H](O)CNC2COC3(CCN(S(=O)(=O)c4ccc5ccccc5c4)CC3)C2)c1 (some centres unmarked) [Compound 6]
[b] NS(=O)(=O)c1cccc(OC[C@@H](O)CN[C@H]2COC3(CCN(S(=O)(=O)c4ccc5c(c4)CCCC5)CC3)C2)c1 [Compound 556]
[c] CNS(=O)(=O)c1cccc(OC[C@@H](O)CNC2COC3(CCN(S(=O)(=O)c4cccc(-c5ccc(N)nc5)c4)CC3)C2)c1 (some centres unmarked) [Compound 103]
// query Rank items: key IC50, increasing. Write out the labels following the order that was asked for.
// result c, a, b
(c: 10.5 nM, a: 24.3 nM, b: 48.5 nM)

[A] CNS(=O)(=O)c1cccc(OC[C@@H](O)CN[C@H]2COC3(CCN(S(=O)(=O)c4cn(CC(=O)O)c5ccccc5c4=O)CC3)C2)c1 [Compound 544]
[B] CNS(=O)(=O)c1cccc(OC[C@@H](O)CN[C@H]2COC3(CCN(c4ncc(Cc5ccccc5)cn4)CC3)C2)c1 [Compound 570]
[C] NCCNS(=O)(=O)c1cccc(OC[C@@H](O)CNC2COC3(CCN(S(=O)(=O)c4ccc5ccccc5c4)CC3)C2)c1 (some centres unmarked) [Compound 91]
[D] CNS(=O)(=O)c1cccc(OC[C@@H](O)CN[C@H]2COC3(CCN(S(=O)(=O)c4ccc5c(c4)CCCO5)CC3)C2)c1 [Compound 184]
// query Order the 4 compounds from highest to lowest IC50. # answer = labels listed in requested order
// result C, B, A, D
(C: 1120 nM, B: 143 nM, A: 32.7 nM, D: 11.9 nM)
